- Target under test: acetylcholinesterase (AChE) (Electrophorus electricus, UniProt O42275)
- Sequence (O42275 24-633): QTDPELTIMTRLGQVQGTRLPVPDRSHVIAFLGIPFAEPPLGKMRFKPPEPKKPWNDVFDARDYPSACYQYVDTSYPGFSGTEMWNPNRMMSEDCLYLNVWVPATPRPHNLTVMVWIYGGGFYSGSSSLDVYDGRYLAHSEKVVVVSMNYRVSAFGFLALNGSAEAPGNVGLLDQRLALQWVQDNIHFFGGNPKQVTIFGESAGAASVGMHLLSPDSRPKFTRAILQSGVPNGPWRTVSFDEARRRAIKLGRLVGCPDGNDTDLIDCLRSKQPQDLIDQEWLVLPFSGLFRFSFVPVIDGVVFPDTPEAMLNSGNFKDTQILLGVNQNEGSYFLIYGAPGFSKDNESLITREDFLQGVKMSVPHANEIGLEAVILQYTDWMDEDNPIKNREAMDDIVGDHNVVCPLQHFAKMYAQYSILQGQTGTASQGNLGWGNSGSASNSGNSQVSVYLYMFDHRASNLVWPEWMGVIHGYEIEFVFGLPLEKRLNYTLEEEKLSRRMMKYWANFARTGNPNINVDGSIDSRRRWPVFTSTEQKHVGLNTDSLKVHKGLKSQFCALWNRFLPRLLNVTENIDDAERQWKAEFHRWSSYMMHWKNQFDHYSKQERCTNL
Property label: pIC50
Numbers only, as −log10 of the molar value.

Some compounds with recorded pIC50:
>  <Compound>
CC(=O)O[C@H]1[C@H]2c3cc4c(cc3C=[N+]3CCC(=C[C@@H]1O)[C@H]23)OCO4 [compound 1, 1-O-acetyl-5,6-dehydrolycorine]

>  <pIC50>
3.21

$$$$
>  <Compound>
CC(=O)O[C@H]1[C@H]2c3cc4c(cc3CN3CCC(=C[C@@H]1O)[C@H]23)OCO4

>  <pIC50>
2.85

$$$$

Could you now look at the following compound, please?
Exercise: So what's the measured pIC50 for this one? CC(=O)OC1[C@@H](OC(C)=O)C=C2CC[N+]3=Cc4cc5c(cc4[C@H]1[C@@H]23)OCO5 (stereo partly drawn) [compound 3, 1,2-O-diacetyl-5,6-dehydrolycorine]
Solution: 4.33
